Target: Full-length (FL)-PRMT5-MEP50 enzyme complex (Homo sapiens, UniProt O14744)
Construct: Full-length (FL)-PRMT5-MEP50 enzyme complex (recombinant proteins from baculovirus-transfected Sf21 cells: FL-PRMT5; MW=73837 kDa and FL-MEP50; MW=38614); made in house; host or cells: baculovirus-transfected Sf21 insect cells
Sequence (O14744 whole entry): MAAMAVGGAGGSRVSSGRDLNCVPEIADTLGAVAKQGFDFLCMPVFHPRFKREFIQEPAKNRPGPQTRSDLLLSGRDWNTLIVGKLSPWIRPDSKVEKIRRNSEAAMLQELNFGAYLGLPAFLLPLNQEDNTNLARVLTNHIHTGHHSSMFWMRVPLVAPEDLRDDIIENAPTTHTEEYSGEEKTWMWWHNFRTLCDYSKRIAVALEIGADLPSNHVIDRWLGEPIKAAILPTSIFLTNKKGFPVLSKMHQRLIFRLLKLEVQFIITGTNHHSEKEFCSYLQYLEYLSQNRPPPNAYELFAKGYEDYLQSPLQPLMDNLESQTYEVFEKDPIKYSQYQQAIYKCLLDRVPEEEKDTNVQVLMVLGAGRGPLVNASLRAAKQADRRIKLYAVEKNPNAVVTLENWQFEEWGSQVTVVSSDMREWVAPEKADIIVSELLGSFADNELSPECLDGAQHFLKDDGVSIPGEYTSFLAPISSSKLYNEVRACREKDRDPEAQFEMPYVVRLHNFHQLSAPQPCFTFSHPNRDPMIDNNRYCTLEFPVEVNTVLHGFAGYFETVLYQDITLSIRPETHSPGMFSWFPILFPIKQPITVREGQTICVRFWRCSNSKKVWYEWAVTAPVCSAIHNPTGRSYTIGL
Sequence (Q9BQA1 whole entry partner): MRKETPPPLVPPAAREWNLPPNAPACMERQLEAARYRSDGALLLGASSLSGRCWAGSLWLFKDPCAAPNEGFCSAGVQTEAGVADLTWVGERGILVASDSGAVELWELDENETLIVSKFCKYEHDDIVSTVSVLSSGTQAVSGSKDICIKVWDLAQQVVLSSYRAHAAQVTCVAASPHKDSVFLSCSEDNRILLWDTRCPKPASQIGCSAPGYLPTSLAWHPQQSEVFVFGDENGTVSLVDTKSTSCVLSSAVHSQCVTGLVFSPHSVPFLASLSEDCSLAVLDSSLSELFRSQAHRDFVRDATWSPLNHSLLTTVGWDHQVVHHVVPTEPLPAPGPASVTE
Assay: PRMT5-MEP50 Enzyme Methylation Assay
Type: biochemical
Settings: second EC50 of 7 parameters biphasic model; 1.0 nM PRMT5-MEP50, 75 nM biotinylated peptide, 15 μM SAM; read-out: Enzyme Methylation Assay (EC50 2)
Description: PRMT5-MEP50 biochemical assay is a direct measurement of the methylation activity of the enzyme complex on a short peptide substrate derived from the N-terminus of H4 histone. Methylation experiment is performed with recombinant PRMT5-MEP50 protein complex. The assessment of inhibitory effect of small molecules is measured by the effectiveness of the compounds to inhibit this reaction (EC50). […]
# EC50 binned as lo (below 200 nM), med (200 nM to below 2000 nM), hi (2000 nM or more)

Study these solved cases before continuing.
smiles_structure=C[C@]1(CCc2ccc3cc(Br)c(N)nc3c2)O[C@@H](n2ccc3c(N)ncnc32)[C@H](O)[C@]1(C)O target_or_test_system="Full-length (FL)-PRMT5-MEP50 enzyme complex (Homo sapiens, UniProt O14744)" answer_label=med
smiles_structure=C#C[C@@]1(O)[C@@H](COc2ccc3cc(Br)c(N)nc3c2)O[C@@H](n2ccc3c(N)ncnc32)[C@@H]1O target_or_test_system="Full-length (FL)-PRMT5-MEP50 enzyme complex (Homo sapiens, UniProt O14744)" answer_label=lo
smiles_structure=Nc1nc2cc(C[C@H]3[C@H]4O[C@@H](n5cc(F)c6c(N)ncnc65)[C@H](O)[C@@]4(O)C[C@@H]3F)ccc2cc1F target_or_test_system="Full-length (FL)-PRMT5-MEP50 enzyme complex (Homo sapiens, UniProt O14744)" answer_label=lo

QUERY: Form field 'band' for "Nc1nc2cc(O[C@H]3CC[C@@]4(O)[C@@H]3O[C@@H](n3ccc5c(CO)ncnc53)[C@@H]4O)ccc2cc1Br"
RESULT: med

QUERY: Form field 'band' for "Nc1ncnc2c1ccn2[C@@H]1O[C@@H]2[C@@H](Oc3ccc4ccc(NCC(F)(F)F)nc4c3)CC[C@]2(O)[C@H]1O"
RESULT: lo

QUERY: Form field 'band' for "Nc1nc2cc(O[C@H]3CC[C@@]4(O)[C@@H]3O[C@@H](n3ccc5cncnc53)[C@@H]4O)ccc2cc1Br"
RESULT: med

QUERY: Form field 'band' for "CNc1ncnc2c1ccn2[C@@H]1C[C@H](COc2ccc3cc(Br)c(N)nc3c2)[C@@](C)(O)[C@H]1O"
RESULT: lo

QUERY: Form field 'band' for "Cc1ncnc2c1ccn2[C@@H]1O[C@@H]2[C@H](Cc3cnc4cc(F)c(N)nc4c3)CC[C@]2(O)[C@H]1O"
RESULT: hi
